- Assay Summary: Cytotoxicity against human SH-SY5Y cells assessed as inhibition of cell growth at 50 uM after 72 hrs by MTT assay relative to control
- Type: cell-based

Structure Smiles String: COc1cc(OC)c(OC)cc1Cc1coc2cc(O)cc(O)c2c1=O
Units Symbol: %
inhibition at 72 h, 50 µM: 15.3
